I'd be grateful if you could share measured AC50 for these entries.
# Experimental Target: UniProt P30411
# Sequence (P30411 whole entry): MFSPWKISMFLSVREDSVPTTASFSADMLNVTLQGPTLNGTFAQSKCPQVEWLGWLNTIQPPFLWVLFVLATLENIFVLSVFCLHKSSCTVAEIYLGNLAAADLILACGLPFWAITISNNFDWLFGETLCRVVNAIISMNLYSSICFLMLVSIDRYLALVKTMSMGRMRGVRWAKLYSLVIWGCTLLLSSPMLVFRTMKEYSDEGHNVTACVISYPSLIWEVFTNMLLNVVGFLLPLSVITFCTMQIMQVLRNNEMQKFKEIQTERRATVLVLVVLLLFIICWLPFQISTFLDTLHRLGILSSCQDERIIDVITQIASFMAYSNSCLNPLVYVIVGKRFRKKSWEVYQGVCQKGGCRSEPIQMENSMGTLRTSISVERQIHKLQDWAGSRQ

IN: // fetch UniProt P30411 AC50 for O=C(/C=C/c1cccc(S(=O)(=O)Nc2ccccc2)c1)NO [BELINOSTAT]
OUT: > 30 µM

IN: // fetch UniProt P30411 AC50 for COc1cc(C(=O)NC2CCCNC2)cc(OC)c1OC (centres undefined) [TROXIPIDE]
OUT: > 30 µM

IN: // fetch UniProt P30411 AC50 for CC(C)[C@@H](C)/C=C/[C@@H](C)[C@H]1CC[C@H]2/C(=C/C=C3\C[C@@H](O)CC[C@@H]3C)CCC[C@]12C [DIHYDROTACHYSTEROL]
OUT: > 10 µM

IN: // fetch UniProt P30411 AC50 for Cc1ccc(C)c(OCCCC(C)(C)C(=O)O)c1 [GEMFIBROZIL]
OUT: > 30 µM

IN: // fetch UniProt P30411 AC50 for OC[C@H]1O[C@@H](n2cnc3c2NC=NC[C@H]3O)C[C@@H]1O [PENTOSTATIN]
OUT: > 30 µM

IN: // fetch UniProt P30411 AC50 for CCC1(CCC(C)C)C(=O)NC(=O)NC1=O [AMOBARBITAL]
OUT: > 10 µM

IN: // fetch UniProt P30411 AC50 for Clc1ccc(CCC(Cn2ccnc2)Sc2c(Cl)cccc2Cl)cc1 (centres undefined) [BUTOCONAZOLE]
OUT: > 30 µM

IN: // fetch UniProt P30411 AC50 for CN(C)Cc1nnc2n1-c1ccc(Cl)cc1C(c1ccccc1)=NC2 [ADINAZOLAM]
OUT: > 10 µM

IN: // fetch UniProt P30411 AC50 for C[N+]12CCC(CC1)C(OC(=O)C(O)(c1ccccc1)c1ccccc1)C2 (centres undefined)
OUT: > 30 µM

IN: // fetch UniProt P30411 AC50 for Oc1ccc(CCNCCCCCCNCCc2ccccc2)cc1O [DOPEXAMINE]
OUT: > 30 µM

IN: // fetch UniProt P30411 AC50 for "CC(C)N(CCCCOCC(=O)O)c1cnc(-c2ccccc2)c(-c2ccccc2)n1"
OUT: > 10 µM

IN: // fetch UniProt P30411 AC50 for Cc1ccccc1N1C(=O)c2cc(S(N)(=O)=O)c(Cl)cc2NC1C (centres undefined) [METOLAZONE]
OUT: > 10 µM

IN: // fetch UniProt P30411 AC50 for COc1ccc2cc(CCC(C)=O)ccc2c1 [NABUMETONE]
OUT: > 10 µM

IN: // fetch UniProt P30411 AC50 for CN[C@]1(c2ccccc2Cl)CCCCC1=O [ESKETAMINE]
OUT: > 30 µM

IN: // fetch UniProt P30411 AC50 for CCOC(=O)C1=C(C)NC(C)=C(C(=O)OCC)C1c1ccccc1/C=C/C(=O)OC(C)(C)C [LACIDIPINE]
OUT: > 30 µM

IN: // fetch UniProt P30411 AC50 for COc1ccccc1OC1(C)OC(=O)c2ccccc2O1 (centres undefined) [GUAIMESAL]
OUT: > 30 µM

IN: // fetch UniProt P30411 AC50 for COc1cc(C)c(/C=C/C(C)=C/C=C/C(C)=C/C(=O)O)c(C)c1C [ACITRETIN]
OUT: > 10 µM

IN: // fetch UniProt P30411 AC50 for O=C(NCCO[N+](=O)[O-])c1cccnc1 [NICORANDIL]
OUT: > 30 µM

IN: // fetch UniProt P30411 AC50 for COc1cc(C(=O)OCc2cccc(COC(=O)c3cc(OC)c(OC)c(OC)c3)n2)cc(OC)c1OC [PIROZADIL]
OUT: > 30 µM
